- Test system: L1210
- Protocol: Antitumor activity against mouse L1210 cells […] in ip dosed C3H X DBA2 F1 hybrid mouse on day 0 and dosed once daily on days 1 to 5 assessed as increase in life span relative to control
- Assay type: functional
Label scheme for D40: lower than 10 mg/kg is 0.0, 10 mg/kg and above is 1.0.

Asked: Can `CC[n+]1cccc(NC(=O)c2ccc(NC(=O)C34CCC(C(=O)Nc5ccc(C(=O)Nc6ccc[n+](CC)c6)cc5)(CC3)CC4)cc2)c1.Cc1ccc(S(=O)(=O)[O-])cc1.Cc1ccc(S(=O)(=O)[O-])cc1` be said to have D40 at or above 10 mg/kg?
Given back: 1.0

Asked: Now consider `C[n+]1cccc(NC(=O)c2ccc(NC(=O)c3ccc(C(=O)Nc4ccc(N/N=N/c5ccc(C(=N)N)cc5)cc4)cc3)cc2)c1.Cc1ccc(S(=O)(=O)O)cc1.Cc1ccc(S(=O)(=O)[O-])cc1` and answer again.
Given back: 0.0

Asked: Then this compound: `Cc1ccc(S(=O)(=O)[O-])cc1.Cc1ccc(S(=O)(=O)[O-])cc1.Cc1ccc2c(c1)c(Nc1ccc(C(=O)Nc3ccc(Nc4cc[n+](C)cc4)cc3)cc1)cc[n+]2C`
Given back: 0.0

Asked: Follow-up item: `CCC[n+]1cccc(-c2ccc(NC(=O)c3ccc(C(=O)Nc4ccc(-c5ccc(-c6ccc(-c7ccc[n+](CCC)c7)cc6)cc5)cc4)cc3)cc2)c1.Cc1ccc(S(=O)(=O)[O-])cc1.Cc1ccc(S(=O)(=O)[O-])cc1`
Given back: 0.0

Asked: Please do the same for `CC[n+]1ccc(-c2ccc(-c3ccc(-c4ccc(NC(=O)c5ccc(C(=O)Nc6ccc(-c7ccc(-c8ccc(-c9cc[n+](CC)cc9)cc8)cc7)cc6)cc5)cc4)cc3)cc2)cc1.Cc1ccc(S(=O)(=O)[O-])cc1.Cc1ccc(S(=O)(=O)[O-])cc1` as well.
Given back: 0.0

Asked: Please do the same for `CC[n+]1ccc(Nc2ccc(NC(=O)c3ccc(Nc4cc[n+](CC)c5cc(N)ccc45)cc3N)cc2)cc1.[Br-].[Br-]` as well.
Given back: 0.0

Asked: Cool, now `CCC[n+]1ccc(Nc2ccc(NC(=O)c3ccc(Nc4cc[n+](CCC)c5ccccc45)cc3N)cc2)cc1.[I-].[I-]`
Given back: 1.0

Asked: Try this compound too: `CCC[n+]1cccc(NC(=O)c2ccc(NC(=O)c3ccc(C(=O)Nc4ccc(C(=O)Nc5ccc[n+](CCC)c5)c(N)c4)cc3)cc2N)c1.Cc1ccc(S(=O)(=O)[O-])cc1.Cc1ccc(S(=O)(=O)[O-])cc1`
Given back: 0.0

Asked: Likewise for `CCCC[n+]1cccc(NC(=O)c2ccc(NC(=O)c3ccc(C(=O)Nc4ccc(C(=O)Nc5ccc[n+](CCCC)c5)cc4)cc3)cc2)c1.Cc1ccc(S(=O)(=O)[O-])cc1.Cc1ccc(S(=O)(=O)[O-])cc1` ?
Given back: 1.0

Asked: Now try `CCCC[n+]1cccc(NC(=O)c2ccc(NC(=O)/C=C/c3ccc(C(=O)Nc4ccc(C(=O)Nc5ccc[n+](CCCC)c5)cc4)cc3)cc2)c1.Cc1ccc(S(=O)(=O)[O-])cc1.Cc1ccc(S(=O)(=O)[O-])cc1` .
Given back: 1.0

Asked: Then what about the compound `C[n+]1ccc(Nc2ccc(NC(=O)c3ccc(C(=O)Nc4ccc(C(=O)Nc5ccc[n+](C)c5)cc4)cc3)cc2)cc1.[I-].[I-]` ?
Given back: 0.0

Asked: What do you have for `CC[n+]1ccc(Nc2ccc(C(=O)Nc3ccc(Nc4cc[n+](CC)c5ccc(N)cc45)cc3)cc2)cc1.[I-].[I-]` ?
Given back: 0.0

Asked: Now this one: `CCC[n+]1cc(-c2ccc(NC(=O)c3ccc(Nc4cc[n+](CCC)c5ccccc45)cc3)cc2)c(N)nc1N.[I-].[I-]`
Given back: 1.0

Asked: What do we get for `Cc1cc(Nc2ccc(C(=O)Nc3ccc(Nc4cc[n+](C)cc4)cc3)c(N)c2)c2cc(N)ccc2[n+]1C.[I-].[I-]` ?
Given back: 0.0

Asked: Can you check `CC[n+]1ccc(Nc2ccc(NC(=O)c3ccc(Nc4cc[n+](CC)c5ccc(N)cc45)cc3)cc2)cc1.[Br-].[Br-]` next?
Given back: 0.0

Asked: Same thing, different compound: `CC[n+]1cccc(NC(=O)c2ccc(NC(=O)c3ccc(C(=O)Nc4ccc(C(=O)Nc5ccc[n+](CC)c5)c(N)c4)c(N)c3)cc2N)c1.Cc1ccc(S(=O)(=O)[O-])cc1.Cc1ccc(S(=O)(=O)[O-])cc1`
Given back: 0.0

Asked: Same for `Cc1ccc(S(=O)(=O)[O-])cc1.Cc1ccc(S(=O)(=O)[O-])cc1.Cc1cccc2c(Nc3ccc(C(=O)Nc4ccc(Nc5cc[n+](C)cc5)cc4)cc3)cc[n+](C)c12`
Given back: 1.0

Asked: And what about the compound `CCCC[n+]1cccc2cc(NC(=O)c3ccc(NC(=O)c4ccc(C(=O)Nc5ccc6c(ccc[n+]6CCCC)c5)cc4)cc3)ccc21.Cc1ccc(S(=O)(=O)[O-])cc1.Cc1ccc(S(=O)(=O)[O-])cc1` ?
Given back: 1.0

Asked: Next: `CC[n+]1cccc(NC(=O)c2ccc(NC(=O)c3ccc(C(=O)Nc4ccc(C(=O)Nc5ccc[n+](CC)c5)c(OC)c4)cc3)cc2OC)c1.Cc1ccc(S(=O)(=O)[O-])cc1.Cc1ccc(S(=O)(=O)[O-])cc1`
Given back: 1.0

Asked: Now this one: `C[n+]1ccc(Nc2ccc(C(=O)Nc3ccc(Nc4cc[n+](C)c5cc(N)ccc45)cc3)cc2)cc1.Cc1ccc(S(=O)(=O)[O-])cc1.Cc1ccc(S(=O)(=O)[O-])cc1`
Given back: 0.0

###

- Test system: Mus musculus
- Protocol: Toxicity in ip dosed C3H X DBA2 F1 hybrid mouse […] with mouse L1210 cells on day 0 and dosed once daily on days 1 to 5 measured after 50 days
- Format: organism-based
- Condition Description: in vivo, 1200 h
Property Label: LD10 (mg/kg)
Report only the number, with the unit mg/kg understood.

Asked: Item under review: `CCCC[n+]1cccc(NC(=O)c2ccc(NC(=O)/C=C/c3ccc(C(=O)Nc4ccc(C(=O)Nc5ccc[n+](CCCC)c5)cc4)cc3)cc2)c1.Cc1ccc(S(=O)(=O)[O-])cc1.Cc1ccc(S(=O)(=O)[O-])cc1` . Reported LD10?
Given back: 24

Asked: Then this compound: `CC[n+]1cccc2cc(NC(=O)c3ccc(C(=O)Nc4ccc5c(ccc[n+]5CC)c4)cc3)ccc21.Cc1ccc(S(=O)(=O)[O-])cc1.Cc1ccc(S(=O)(=O)[O-])cc1`
Given back: 4

Asked: Here is the next compound: `C[n+]1cccc2cc(NC(=O)CCc3ccc(C(=O)Nc4ccc5c(ccc[n+]5C)c4)cc3)ccc21.Cc1ccc(S(=O)(=O)[O-])cc1.Cc1ccc(S(=O)(=O)[O-])cc1`
Given back: 270

Asked: Next: `CC[n+]1cccc2cc(NC(=O)/C=C/c3ccc(C(=O)Nc4ccc5c(ccc[n+]5CC)c4)cc3)ccc21.Cc1ccc(S(=O)(=O)[O-])cc1.Cc1ccc(S(=O)(=O)[O-])cc1`
Given back: 9

Asked: Input `CC[n+]1ccc(Nc2ccc(NC(=O)c3ccc(Nc4cc[n+](CC)c5ccccc45)cc3N)cc2)cc1.[I-].[I-]`
Given back: 53

Asked: Also, `CC[n+]1cc(-c2ccc(NC(=O)/C=C/c3ccc(C(=O)Nc4ccc(-c5c[n+](CC)c(N)nc5N)cc4)cc3)cc2)c(N)nc1N.Cc1ccc(S(=O)(=O)[O-])cc1.Cc1ccc(S(=O)(=O)[O-])cc1` please.
Given back: 27

###

- Protocol: Lipophilic-hydrophilic balance, Rm of the compound by partition chromatography
- Assay type: physicochemical
Please provide measured Rm for the entries that follow.

Asked: Find the recorded Rm belonging to `CCCC[n+]1cccc(NC(=O)c2ccc(NC(=O)c3ccc(C(=O)Nc4ccc(C(=O)Nc5ccc[n+](CCCC)c5)cc4)cc3)cc2)c1.Cc1ccc(S(=O)(=O)[O-])cc1.Cc1ccc(S(=O)(=O)[O-])cc1` and report it.
Given back: 0.51

Asked: Here is the next compound: `CC[n+]1ccc(Nc2ccc(NC(=O)c3ccc(Nc4cc[n+](CC)c5ccccc45)cc3N)cc2N)cc1.[I-].[I-]`
Given back: 0.35

Asked: And then `C/C(=N\NC(=N)N)c1ccc(C(=O)Nc2ccc(Nc3cc[n+](C)c4ccc(N)cc34)cc2)cc1.Cc1ccc(S(=O)(=O)O)cc1.Cc1ccc(S(=O)(=O)[O-])cc1` , what is it?
Given back: -0.1

Asked: Thanks! And `C[n+]1ccc(Nc2ccc(C(=O)Nc3ccc(Nc4c5ccccc5[n+](C)c5cc(N)ccc45)cc3)cc2)cc1.[Cl-].[Cl-]` ?
Given back: 0.47

Asked: Next record, please: `CC[n+]1ccccc1NC(=O)c1ccc(NC(=O)c2ccc(C(=O)Nc3ccc(C(=O)Nc4cccc[n+]4CC)cc3)cc2)cc1.Cc1ccc(S(=O)(=O)[O-])cc1.Cc1ccc(S(=O)(=O)[O-])cc1`
Given back: 0.57

Asked: Moving on to `C[n+]1cccc2cc(NC(=O)c3ccc(C(=O)Nc4ccc5c(ccc[n+]5C)c4)nc3)ccc21.Cc1ccc(S(=O)(=O)[O-])cc1.Cc1ccc(S(=O)(=O)[O-])cc1`
Given back: -0.4

Asked: Record: `CC[n+]1ccc(Nc2ccc(NC(=O)c3ccc(Nc4cc[n+](CC)c5ccc(N)cc45)cc3N)cc2)cc1.[I-].[I-]`
Given back: 0.37

Asked: Cool, now `C[n+]1ccc(Nc2ccc(NC(=O)/C=C/c3ccc(C(=O)Nc4ccc(Nc5cc[n+](C)cc5)c(N)c4)cc3)cc2N)cc1.Cc1ccc(S(=O)(=O)[O-])cc1.Cc1ccc(S(=O)(=O)[O-])cc1`
Given back: 0.04

Asked: Input `C[n+]1ccc(Nc2ccc(NC(=O)c3ccc(C(=O)Nc4ccc(Nc5cc[n+](C)cc5)cc4)cc3)cc2)cc1.Cc1ccc(S(=O)(=O)[O-])cc1.Cc1ccc(S(=O)(=O)[O-])cc1`
Given back: 0.07

Asked: Try this compound too: `Br.C/C(=N\NC(=N)N)c1ccc(NC(=O)Nc2ccc(Nc3cc[n+](C)c4ccc(N)cc34)cc2)cc1.[Br-]`
Given back: -0.15

Asked: Record: `C/C(=N\NC(=N)N)c1ccc(NC(=O)c2ccc(Nc3cc[n+](C)c4cc([N+](=O)[O-])ccc34)cc2)cc1.Cl.[Cl-]`
Given back: -0.24

Asked: Entry to check: `C[n+]1cccc2cc(NC(=O)Cc3ccc(CC(=O)Nc4ccc5c(ccc[n+]5C)c4)cc3)ccc21.Cc1ccc(S(=O)(=O)[O-])cc1.Cc1ccc(S(=O)(=O)[O-])cc1`
Given back: 0.07

Asked: Same question, `CC[n+]1cccc2cc(NC(=O)c3ccc(C(=O)Nc4ccc5c(ccc[n+]5CC)c4)c(N)c3)ccc21.Cc1ccc(S(=O)(=O)[O-])cc1.Cc1ccc(S(=O)(=O)[O-])cc1` this time
Given back: -0.01

Asked: What do we get for `CC[n+]1ccc(-c2ccc(-c3ccc(-c4ccc(NC(=O)c5ccc(C(=O)Nc6ccc(-c7ccc(-c8ccc(-c9cc[n+](CC)cc9)cc8)cc7)cc6)cc5)cc4)cc3)cc2)cc1.Cc1ccc(S(=O)(=O)[O-])cc1.Cc1ccc(S(=O)(=O)[O-])cc1` ?
Given back: 0.09

Asked: Please answer likewise for `C[n+]1ccc(Nc2ccc(NC(=O)c3ccc(Nc4cc[n+](C)c5cc([N+](=O)[O-])ccc45)cc3)cc2)cc1.Cc1ccc(S(=O)(=O)[O-])cc1.Cc1ccc(S(=O)(=O)[O-])cc1`
Given back: 0.15

Asked: What would you report for `C[n+]1ccc(Nc2ccc(NC(=O)/C=C/c3ccc(C(=O)Nc4ccc(Nc5cc[n+](C)cc5)cc4)cc3)cc2)cc1.Cc1ccc(S(=O)(=O)[O-])cc1.Cc1ccc(S(=O)(=O)[O-])cc1` ?
Given back: -0.34

Asked: Another compound to look at: `C[n+]1ccccc1NC(=O)c1ccc(NC(=O)c2ccc(C(=O)Nc3ccc(C(=O)Nc4cccc[n+]4C)cc3)cc2)cc1.Cc1ccc(S(=O)(=O)[O-])cc1.Cc1ccc(S(=O)(=O)[O-])cc1`
Given back: 0.11

Asked: Then `CC[n+]1c(C)cc(Nc2ccc(NC(=O)c3ccc(C(=O)Nc4ccc(Nc5cc(C)[n+](CC)c(N)n5)cc4)cc3)cc2)nc1N.Cc1ccc(S(=O)(=O)[O-])cc1.Cc1ccc(S(=O)(=O)[O-])cc1` ?
Given back: -0.4

Asked: Then this compound: `COc1cc(C(=O)Nc2ccc[n+](C)c2)ccc1NC(=O)c1ccc(C(=O)Nc2ccc(C(=O)Nc3ccc[n+](C)c3)cc2OC)cc1.Cc1ccc(S(=O)(=O)[O-])cc1.Cc1ccc(S(=O)(=O)[O-])cc1`
Given back: -0.41

Asked: And the next one, `C[n+]1cccc(NC(=O)c2ccc(C(=O)Nc3ccc[n+](C)c3)cc2)c1.Cc1ccc(S(=O)(=O)[O-])cc1.Cc1ccc(S(=O)(=O)[O-])cc1` ?
Given back: 0

Asked: And for `CCC[n+]1ccc(Nc2ccc(NC(=O)c3ccc(C(=O)Nc4ccc(Nc5cc[n+](CCC)cc5)cc4)cc3)cc2)cc1.Cc1ccc(S(=O)(=O)[O-])cc1.Cc1ccc(S(=O)(=O)[O-])cc1` ?
Given back: 0.81

Asked: Further, for `CCCC[n+]1cccc2cc(NC(=O)c3ccc(NC(=O)c4ccc(C(=O)Nc5ccc6c(ccc[n+]6CCCC)c5)cc4)cc3)ccc21.Cc1ccc(S(=O)(=O)[O-])cc1.Cc1ccc(S(=O)(=O)[O-])cc1` ?
Given back: 0.26

Numbers sourced from ChEMBL document CHEMBL3228010.
